Cited source for all entries: ChEMBL document CHEMBL1157784

test protocol: Growth inhibition of human leukemia cell by NCI-CLS assay
Type: functional
Listed here: items and their measured GI50.

structure smiles | GI50 / µM
COc1ccc2c(c1)/C(=C\c1cccc(/C=C3/C(=O)Nc4ccc(OC)cc43)c1)C(=O)N2 | 1
COc1ccc2c(c1)/C(=C\c1cc(OC)c(O)c(-c3cc(/C=C4/C(=O)Nc5ccc(OC)cc54)cc(OC)c3O)c1)C(=O)N2 | 6.9
COc1ccc2c(c1)/C(=C\c1cc(C(C)(C)C)cc(/C=C3/C(=O)Nc4ccc(OC)cc43)c1O)C(=O)N2 | 3.9
COc1ccc(OC)c2c1NC(=O)/C2=C/c1cccc(/C=C2/C(=O)Nc3c(OC)ccc(OC)c32)n1 | 0.4
